test system: UACC-257 melanoma; assay: NCI tumour cell line growth inhibition, 48 h; in the data active means GI50 below about 0.43 µM; inactive means the rest
Please reply with one of these outcomes: Yes = active, No = inactive

Write down the call the test reported for this compound. Item: CC/C(=C(\c1ccccc1)c1ccc(OCCN(C)C)cc1)c1ccccc1
No

Write down the call the test reported for this compound. Item: CCOC(=O)c1cc2c(n1Cc1cccc(OC)c1)-c1oncc1CC2
No

Write down the call the test reported for this compound. Item: COc1ccc(C(=O)/C=C/c2ccc(Cl)cc2)cc1S(N)(=O)=O
No

Write down the call the test reported for this compound. Item: N#Cc1c(N)nn(C(=O)c2ccc(NC(=O)c3ccccn3)cc2)c1-c1ccc(Cl)cc1
No

Write down the call the test reported for this compound. Item: C(=N\Nc1ncc(-c2cc3cc4c(cc3o2)OCO4)s1)/c1c[nH]c2ccccc12
No

Write down the call the test reported for this compound. Item: Cn1cc(-c2ccc3cc(-c4ccc(CC(=O)Nc5cc(C(C)(C)C)nn5C)cc4)cnc3c2)cn1
Yes

Write down the call the test reported for this compound. Item: CC(C)Oc1cc(OCC(=O)O)cc(C(=O)N(CCC(N)=O)C(=O)Nc2ccc(C(=O)O)cc2OC(C)C)c1
No

Write down the call the test reported for this compound. Item: COc1ccc(NC(=O)c2ccc(NC3=C(Cl)C(=O)N(Cc4ccccc4)C3=O)cc2)cc1
No

Write down the call the test reported for this compound. Item: COc1ccc(C(=O)CC2(O)C(=O)Nc3c(Cl)ccc(Cl)c32)cc1 (configuration not stated)
No

Write down the call the test reported for this compound. Item: CCN1CCC(C(=O)Nc2n[nH]c3nnc(-c4cccc(F)c4F)cc23)CC1
No

Write down the call the test reported for this compound. Item: C=C1C(=O)O[C@@H]2[C@@H]3O[C@@](C)(CC/C=C(\C)CCC[C@@H]2C)[C@H](O)C[C@@H]13
No

Write down the call the test reported for this compound. Item: O=C1CCC/C=C\C[C@H]2C=C(Cl)C(=O)/C2=C/C[C@H](CCCCC(F)(F)F)OC(=O)CCC/C=C\C[C@H]2C=C(Cl)C(=O)/C2=C/C[C@H](CCCCC(F)(F)F)O1
No

###

tested on: HCC-2998 colon; experiment: NCI tumour cell line growth inhibition, 48 h
MEASUREMENT NAME: TGI

Provide one value: measured TGI of c1ccc2c(c1)c1c(n2CCOCCN2CCCCC2)CCCC1
23.6 µM

Provide one value: measured TGI of CCN(CC)CCCCCCCCNc1c2ccc(Cl)cc2nc2ccc(OC)cc12
6.99 µM

Provide one value: measured TGI of CCCC1NC(C#N)(C#N)C(CCC)NC1(C#N)C#N (stereo unspecified)
> 58.2 µM

Provide one value: measured TGI of CCOC(=O)C(C(=O)c1ccccc1-c1ccccc1C(=O)O)=P(c1ccccc1)(c1ccccc1)c1ccccc1
47.7 µM

Provide one value: measured TGI of CCCCC/C=C1/CC(CO)(COC(=O)CC(C(C)C)C(C)C)OC1=O (stereo unspecified)
35.2 µM

Provide one value: measured TGI of COc1ccccc1/C=C1\COc2ccc(O)c(O)c2C1=O
3.25 µM

###

test system: SF-295 CNS; assay: NCI tumour cell line growth inhibition, 48 h
MEASUREMENT NAME: TGI (µM)
Please state the figure in µM; there is no need to write the unit.

Provide one value: measured TGI of O=C(CC(O)(c1ccccc1)c1ccc(Cl)cc1)NC(=O)c1ccccc1O (stereo unspecified)
26.3

Provide one value: measured TGI of O=C(Nc1nc2ncn(CCOC(=O)c3ccccc3)c2c(=O)[nH]1)c1ccccc1
54.2

Provide one value: measured TGI of O=C1Cc2c(-c3ccc(Cl)cc3)cc(-c3ccccc3)nc2-c2ccccc2N1
26.6

Provide one value: measured TGI of CCN(CC)CCN(C)CC(C)(C)C(=O)/C=C/c1ccccc1
29.4

Provide one value: measured TGI of COc1c(O)c2ccccc2c2cc(O)ccc12
23.5

Data provenance is PubChem BioAssay (NCI).
